Molecular target: human LXRβ (Homo sapiens, UniProt P55055)
Construct: biotin (biotinylated; biotinylation tag not described); made in house; host or cells: E. coli
Sequence (P55055 whole entry): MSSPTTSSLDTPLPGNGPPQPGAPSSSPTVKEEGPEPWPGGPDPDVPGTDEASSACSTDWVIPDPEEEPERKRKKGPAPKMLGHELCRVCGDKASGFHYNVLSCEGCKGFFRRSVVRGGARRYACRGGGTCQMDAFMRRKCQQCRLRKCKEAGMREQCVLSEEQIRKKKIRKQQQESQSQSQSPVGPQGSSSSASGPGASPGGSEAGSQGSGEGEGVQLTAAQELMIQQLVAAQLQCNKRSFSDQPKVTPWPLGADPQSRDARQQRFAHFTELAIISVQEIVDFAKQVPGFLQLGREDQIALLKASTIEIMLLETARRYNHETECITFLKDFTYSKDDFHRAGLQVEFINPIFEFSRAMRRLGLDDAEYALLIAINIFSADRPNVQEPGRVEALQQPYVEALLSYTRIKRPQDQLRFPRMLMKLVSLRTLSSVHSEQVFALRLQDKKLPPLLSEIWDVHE
Experiment: Ligand-binding test procedure for human LXRβ (3H T0901317 competition, flash plates)
Conditions: IC50 (μM) LXRα binding/IC50 (μM) LXRβ binding
quantity kind: Binding ratio a/b

Worked cases, Binding ratio a/b given:
[
  {
    "molecule": "Cc1ccc(C(=O)O)cc1NCc1cccc(-c2c(Cc3ccccc3)cnc3c(C(F)(F)F)cccc23)c1",
    "Binding ratio a/b": 2
  },
  {
    "molecule": "O=C(O)Cc1cccc2ccc(OCc3cccc(-c4c(Cc5ccccc5)cnc5c(C(F)(F)F)cccc45)c3)cc12",
    "Binding ratio a/b": 3
  },
  {
    "molecule": "Cn1cc(C(=O)O)c2cccc(NCc3cccc(-c4c(Cc5ccccc5)cnc5c(C(F)(F)F)cccc45)c3)c21",
    "Binding ratio a/b": 6
  },
  {
    "molecule": "O=C(O)c1cnc(Oc2cccc(-c3c(Cc4ccccc4)cnc4c(C(F)(F)F)cccc34)c2)cn1",
    "Binding ratio a/b": 1
  },
  {
    "molecule": "O=C(O)c1cccc(Oc2cccc(-c3c(Cc4ccccc4)cnc4c(Cl)cccc34)c2)c1",
    "Binding ratio a/b": 1
  },
  {
    "molecule": "O=C(O)Cc1ccc2cccc(OCc3cccc(-c4c(Cc5ccccc5)cnc5c(C(F)(F)F)cccc45)c3)c2c1",
    "Binding ratio a/b": 1
  }
]

a. COc1cccc(NCc2cccc(-c3c(Cc4ccccc4)cnc4c(C(F)(F)F)cccc34)c2)c1C(=O)O
b. O=C(O)CCc1ccc(NCc2cccc(-c3c(Cc4ccccc4)cnc4c(C(F)(F)F)cccc34)c2)cc1
In: // select label with min value of measured Binding ratio a/b from [ a , b ] Let me know the label of the one you choose.
Out: a
(a: 5, b: 10)

I. O=C(O)Cc1ccc(NCc2cccc(-c3ccnc4c(C(F)(F)F)cccc34)c2)c2ccccc12
II. O=C(O)C1CCN(C(=O)c2cccc(COc3cccc(-c4c(Cc5ccccc5)cnc5c(C(F)(F)F)cccc45)c3)c2)CC1
In: Just tell me: smaller Binding ratio a/b value, I or II ? # respond with the chosen item's label
Out: I

A. Cn1c(C(=O)O)cc2cc(NCc3cccc(-c4c(Cc5ccccc5)cnc5c(C(F)(F)F)cccc45)c3)ccc21
B. Cc1cc(NCc2cccc(-c3ccnc4c(C(F)(F)F)cccc34)c2)c(C)cc1CC(=O)O
C. Cc1cc(NCc2ccsc2-c2c(Cc3ccccc3)cnc3c(C(F)(F)F)cccc23)c(C)cc1CC(=O)O
D. O=C(O)c1c(Cl)cccc1NCc1cccc(-c2c(Cc3ccccc3)cnc3c(C(F)(F)F)cccc23)c1
E. O=C(O)c1c(F)cccc1OCc1cccc(-c2c(Cc3ccccc3)cnc3c(C(F)(F)F)cccc23)c1
In: Thanks in advance: please rank these 5 entries by Binding ratio a/b, highest to lowest. Reply: labels, ordered per the request.
Out: B, C, A, E, D
(B: 31, C: 8, A: 5, E: 2, D: 1)

P. O=C(O)CC1CCCc2c(OCc3cccc(-c4c(Cc5ccccc5)cnc5c(C(F)(F)F)cccc45)c3)cccc21 (centres unmarked)
Q. Cc1ccc(NCc2cccc(-c3c(Cc4ccccc4)cnc4c(C(F)(F)F)cccc34)c2)c(C(=O)O)c1
In: P or Q : whose Binding ratio a/b is greater? Select an item and report its label.
Out: P
(P: 7, Q: 4)

Data provenance: patent US20090069373A1
